The measured values listed here are drawn from the nanobody polyreactivity screen of Harvey et al. (2022).

test: yeast display, Sf9 membrane polyspecificity reagent, FACS + sequencing; frameworks hold sequencing errors
property: polyreactivity (PSR sort gate)

Solved entries (count: 5):
{"sequence_string": "QVQLVESGGGLVQAGGSLRLSCAASGFTFYRYAMGWYRQAPWKERELVAVISGNAGSTYYADSVKGRFTISRDNAKNTVYLQMNSLKPEDTAVYYCNARKARAYGTFEYWGQGTQVTVSS", "polyreactivity (PSR sort gate)": "high polyreactivity"}
{"sequence_string": "QVQLVESGGCLVQAGGSLRLSCAASGFTFGRNYMGWYRQAPGKEREFVASISGSGGRTYYADSVKGRFTISRDNAKNTVYLQMNSLQPEDTAVYYCAAYRYSAYLYWDEYGGQGTQVTVSS", "polyreactivity (PSR sort gate)": "high polyreactivity"}
{"sequence_string": "QVQLVESGGGLVQAGGSLRLSCAASGIIFWYYAMGWYRQAPGKERELVAAISQSGGSTYYADSVKGRFTISRDNAKNTVYLQMNSMKPEDTAVDYCAAKPFYWSLEYDYRGQGTQVTVSS", "polyreactivity (PSR sort gate)": "high polyreactivity"}
{"sequence_string": "QVQHVESRGGLVQAGGSLRLSCAASGSTFCRYAMGWYRKAPGKEREFVARITYSSGRTYYADSVKGRFTISRDNAKNTVYLQMNSLKPDDTAVYYCAAGDYTRGPCGDYWGQGTQVTVSS", "polyreactivity (PSR sort gate)": "high polyreactivity"}
{"sequence_string": "QVQLVESGGGLVQAGGSLRLSCAASGIIFSQYAMGWYRQAPGKERELVAGITRSGGSTYYADSVKGRFTISRDNAKNTVYLQMNSLKPEDTAVYYCAAVQRYEYGYWGQGTQVTVSS", "polyreactivity (PSR sort gate)": "high polyreactivity"}

Fill in polyreactivity (PSR sort gate) for each of the 4 sequences listed.
1. QVQLVESGGGLVQAGGSLRLSCAASGSIYFLYAMGWYRQAPGKERELVAAISWSVDRTYYADSVKGRFTISRDNAKNTVYLQMNSLKPEDTAVYYCAAVHWWSSSLRMYYWGQGTQVTVSS
2. QVQLVESGGCLVQAGGSLRLSCAASGITFPGNAMGWYRPATGKERELVAVIRKSGTSTYYADSVKGRFTISRDNAKNTVYLQMISLIPEDTAVYYCAAGGPSTLDDYWGHGTQVTVSS
3. QVQLVESGGGLFQAGGSLRLSCAASGSIFWSYDMGWYRQAPGKERELVATITSGDSTYYADSVKGRFTISRDNAKNTVYLQMNSLKPEDTAVYYCAAGTYYRRTYWHREYDYWGQGTQVTVSS
4. QVQLVESGGGLVQAGGSLRLSCAASGNIFAVNAMGWSRQAPGKERELVARIRYSTGRTYYADSVKGRFTISRDNAKNTVYLQMNSLKPEDTAVYYCATDYYTTRVPGGYDYWGHGTQVTVSS

low polyreactivity
low polyreactivity
low polyreactivity
high polyreactivity

Please give polyreactivity (PSR sort gate) for each item listed below.
1. QVQLVESGGGLVQAGGSLRLSCAASGSTFWGYTMGWYRPAPGKERELVAAITGSGGSTNYADSVKGRFTISRDNAKNTVYLQMNSLKPEDTAVYYCATQGITPSNSYDYWGQGTQVTVSS
2. QVQLVESGGGLVQAGGSLRLSCAASGSTFGFNAMGWYRPAPGKEREFVAAINTSGGNTYYADSVKGRFTISRDNAKNTVYLQMNSLKPEDTAVYYCNAREGHLYGYPYGYWGQGTQVTVSS

1: low polyreactivity; 2: low polyreactivity
